Origin of values: PubChem BioAssay (NCATS)

Reported Potency values follow for various molecules
Protocol notes: Cell Viability - SK-N-SH (AID 435);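 note: potency is the fitted concentration of half-maximal effect; compound exposure lasted 40 h at 37 °C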
Measurement parameters: SK-N-SH neuroblastoma cell viability qHTS
Inconclusive results are not listed. Calls of active or inactive are those of the source. Calls come from the whole dose curve.
Experimental readout: Potency

O=Cc1ccc(Cl)c(Cl)c1 = > 92 µM (inactive)
c1ccc2c(c1)-c1cccc3c1c-2cc1ccccc13 = > 92 µM (inactive)
Cc1cc(Nc2ccc(O)cc2)ccc1N = 87 µM (active)
C=C(C)c1ccccc1 = > 92 µM (inactive)
C=CC(=O)OCCOCCOC(=O)C=C = 22.7 µM (active)
ClC1=C(Cl)C(Cl)(Cl)C(Cl)=C1Cl = > 92 µM (inactive)
CO[C@H]1/C=C/O[C@@]2(C)Oc3c(C)c(O)c4c(O)c(c5c(c4c3C2=O)NC2(CCN(CC(C)C)CC2)N=5)=NC(=O)/C(C)=C\C=C\[C@H](C)[C@H](O)[C@@H](C)[C@@H](O)[C@@H](C)[C@H](OC(C)=O)[C@@H]1C = > 92 µM (inactive)
c1cc(OCC2CO2)cc(OCC2CO2)c1 (stereo not drawn) = 9.23 µM (active)
Nc1ccc2cc3ccccc3cc2c1 = > 92 µM (inactive)
Oc1ccc2cc(SSc3ccc4cc(O)ccc4c3)ccc2c1 = 42.5 µM (active)
O=C=Nc1ccc(Cc2ccc(N=C=O)cc2)cc1 = > 92 µM (inactive)
O=C1OC2(c3cc(Br)c(O)c(Br)c3Oc3c2cc(Br)c(O)c3Br)c2c(Cl)c(Cl)c(Cl)c(Cl)c21 = > 92 µM (inactive)
CCCCCC/C(C=O)=C\c1ccccc1 = > 92 µM (inactive)
O=C(OCC(COC(=O)c1ccccc1)(COC(=O)c1ccccc1)COC(=O)c1ccccc1)c1ccccc1 = > 92 µM (inactive)
CCCCCCCC[N+](CCCCCCCC)(CCCCCCCC)CCCCCCCC = 9.44 µM (active)
C=CC(=O)OCC(CO)(COC(=O)C=C)COC(=O)C=C = 2.02 µM (active)
Cc1cccc(O)c1C = > 92 µM (inactive)
CC/C(=C(\c1ccccc1)c1ccc(OCCN(C)C)cc1)c1ccc(O)cc1 = 34.3 µM (active)

* * *

Experimental system: Guanine nucleotide-binding protein G(i) subunit alpha-1 (Homo sapiens) (UniProt P63096)
Sequence (P63096 whole entry, looked up): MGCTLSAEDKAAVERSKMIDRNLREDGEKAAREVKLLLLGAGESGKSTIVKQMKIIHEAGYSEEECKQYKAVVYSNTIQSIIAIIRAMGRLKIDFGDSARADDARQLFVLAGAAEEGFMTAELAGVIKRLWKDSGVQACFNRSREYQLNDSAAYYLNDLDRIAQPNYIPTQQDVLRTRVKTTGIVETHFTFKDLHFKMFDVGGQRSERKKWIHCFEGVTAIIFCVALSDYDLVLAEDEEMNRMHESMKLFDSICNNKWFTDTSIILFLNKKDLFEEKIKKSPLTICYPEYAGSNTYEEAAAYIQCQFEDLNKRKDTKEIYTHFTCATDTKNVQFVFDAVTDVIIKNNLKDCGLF
Protocol notes: qHTS Assay for Inhibitors of RGS12 GoLoco Motif Activity (Green Fluorophore) (AID 879);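 note: negative values mean loss of peptide binding seen as reduced polarization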
Measurement parameters: Galphai1/FITC-RGS12 GoLoco peptide, fluorescence polarization; series mostly up to 57.1 µM
Source text: Assay Overview: NIH Molecular Libraries Screening Centers Network [MLSCN] NIH Chemical Genomics Center [NCGC] MLSCN Grant: NS053754-01 Assay Provider: Siderovski, David P, University of North Carolina at Chapel Hill G-protein-coupled receptors (GPCRs) are major targets for drug discovery. […] Inhibitors of the binding are detected by a decrease in the fluorescence polarization (FP) of the fluorophore. […]
The source made the active and inactive calls. Calls come from the whole dose curve; as a rule, active = well fitted curve in the direction sought with a large enough effect; inconclusive = small, poorly fitted or top-dose-only effect, or another doubt; inactive = no such curve, though single readings can be large or run the other way.
Experimental readout: outcome

C/C=C1\C(=O)C[C@@H]2[C@@H]3CCC4=CC(=O)CC[C@@]4(C)[C@H]3CC[C@@]12C = inactive
CCCCCCCCCCCCCCCCCCNC(=O)OC[C@@H](COP(=O)([O-])OCC[n+]1ccsc1)OC = inactive
CN1C[C@@H](C(=O)N[C@]2(C)O[C@]3(O)[C@H]4CCCN4C(=O)[C@H](Cc4ccccc4)N3C2=O)C[C@H]2c3cccc4[nH]cc(c34)C[C@@H]21 = inactive
O=c1[nH]c(=O)n([C@H]2C[C@H](O)[C@H](CO)O2)cc1/C=C\Br = inactive
CSc1ccc2c(c1)N(CC[C@H]1CCCCN1C)c1ccccc1S2 = inactive
CN1CCc2cc(O)c(O)cc2[C@H](c2ccccc2)C1 = inactive
CCNC(=O)[C@@H]1O[C@@H](n2cnc3c(N)nc(NCCc4ccc(CCC(=O)O)cc4)nc32)[C@H](O)[C@@H]1O = inactive
C#CCN1C(C)=C(C(=O)OC)[C@@H](c2cccc([N+](=O)[O-])c2)C(C(=O)OCC)=C1C = inactive
N[C@H](Cc1ccc(F)cc1)C(=O)O = inactive
CCCN1C[C@@H](CSC)C[C@H]2c3cccc4[nH]cc(c34)C[C@@H]21 = inactive
CC(C)(C(=O)O)c1ccc([C@@H](O)CCCN2CCC(C(O)(c3ccccc3)c3ccccc3)CC2)cc1 = inactive
CC(=O)S[C@@H]1CC2=CC(=O)CC[C@@]2(C)[C@H]2CC[C@]3(C)[C@H](CC[C@@]34CCC(=O)O4)[C@H]12 = inactive
COc1cccc2c1[C@@H]1CN(CCCCn3c(=O)[nH]c4c(sc5ncc(-c6ccccc6)nc54)c3=O)C[C@H]1CO2 = inactive
c1ccc2c(c1)CCC[C@H]2C1=NCCN1 = inactive
O=C1c2c(O)cc(O)cc2O[C@@H](c2ccc(O)c(O)c2)[C@H]1O = inactive
CCOC(=O)C1=C(C)NC(C)=C(C(=O)OC)[C@H]1c1cccc(Cl)c1Cl = inactive
CCCCCCCCCCCCCCCCCC(=O)NC[C@@H](COP(=O)([O-])OCC[N+](C)(C)C)OCC = inactive
CCCCCCCCCC(=O)N[C@@H](CN1CCOCC1)[C@@H](O)c1ccccc1 = inactive
O=C(/C=C\c1ccc(O)cc1)c1ccc(O)cc1O = inactive

* * *

Experimental system: Cytochrome P450 1A2 (Homo sapiens) (UniProt P05177)
Sequence (P05177 whole entry, looked up): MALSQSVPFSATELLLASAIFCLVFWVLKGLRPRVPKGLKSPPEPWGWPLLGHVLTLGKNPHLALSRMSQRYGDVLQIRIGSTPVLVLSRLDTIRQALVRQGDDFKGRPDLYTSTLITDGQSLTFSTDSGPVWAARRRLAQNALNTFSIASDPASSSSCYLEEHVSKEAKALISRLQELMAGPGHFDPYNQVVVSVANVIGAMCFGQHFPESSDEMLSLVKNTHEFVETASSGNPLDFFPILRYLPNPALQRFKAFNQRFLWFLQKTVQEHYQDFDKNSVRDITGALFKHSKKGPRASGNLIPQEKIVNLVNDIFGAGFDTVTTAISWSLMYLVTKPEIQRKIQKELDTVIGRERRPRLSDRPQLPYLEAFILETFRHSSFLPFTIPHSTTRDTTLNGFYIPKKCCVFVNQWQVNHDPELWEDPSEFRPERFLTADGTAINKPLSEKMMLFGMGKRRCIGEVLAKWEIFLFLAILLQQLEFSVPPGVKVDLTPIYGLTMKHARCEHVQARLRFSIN
Protocol notes: p450-cyp1a2 (AID 410)
Measurement parameters: recombinant CYP1A2, luciferin-ME demethylation, luminescence; series mostly up to 57 µM
Inconclusive results are not listed. Active and inactive are the calls of the source. The call rests on the fitted dose curve.
Experimental readout: outcome

CC(C)C[C@@H](CC(=O)N[C@@H](CCC(=O)O)CC(=O)O)NC(=O)[C@@H]1CCCC[C@H]1NC(=O)C[C@@H](NC(=O)C[C@H](Cc1c[nH]c2ccccc12)NC(=O)[C@@H]1CCCC[C@H]1N)C(C)C = inactive
COC(=O)[C@@]1(Cc2ccc(OC)cc2)[C@H]2c3cc(C(=O)N4CCCC4)n(CCc4c[nH]c5ccc(O)cc45)c3C[C@H]2CN1C(=O)c1ccccc1 = inactive
COC(=O)[C@@]1(Cc2ccccc2)[C@H]2c3cc(C(=O)N4CCCC4)n(Cc4ccccn4)c3C[C@H]2CN1C(=O)c1ccccc1 = inactive

* * *

Tested on: ATS95
Protocol notes: qHTS profiling for inhibitors of Plasmodium falciparum proliferation (AID 504749); note: nearly all actives have a fitted effect of over 60% in size
Measurement parameters: P. falciparum in erythrocytes, SYBR Green DNA, 72 h; series mostly up to 28.7 µM
Records with an inconclusive call do not appear. Calls of active or inactive are those of the source. The call rests on the fitted dose curve; in most records, active means well fitted inhibition curve with a large enough effect; inconclusive means small, poorly fitted or top-dose-only effect; inactive means flat fitted curve, though single readings scatter.
Classes used: Y = active, N = inactive

C#C[C@@]1(O)CC[C@@H]2[C@H]3CCC4=C/C(=N\O)CC[C@H]4[C@@H]3CC[C@]21CC = N
CCC(C(=O)O)C1OC(C(C)C(O)C(C)C(=O)C(CC)C2OC3(C=CC(O)C4(CCC(C)(C5CCC(O)(CC)C(C)O5)O4)O3)C(C)CC2C)C(C)CC1C (centres undefined) = Y
O=C1CC[C@H](C(=O)N[C@@H]2C[C@H]2c2ccccc2)N1 = N
CNC1=CN(O)C(c2ccccc2)=c2cc(Cl)ccc2=N1 = Y
O=C(O)C[CH2][Ge](=[O])[O][Ge](=[O])[CH2]CC(=O)O = N
NC(=O)NC(CCC(=O)O)C(=O)O (centres undefined) = N
O=C(NC(CO)C(O)c1ccc([N+](=O)[O-])cc1)C(Cl)Cl (centres undefined) = N
COc1cccc2c1C(=O)c1c(O)c3c(c(O)c1C2=O)C[C@@](O)(C(=O)CO)C[C@@H]3OC1CC(N)C(O)C(C)O1 (some centres undefined) = Y
O=C(O)CC(O)CC(O)/C=C/c1c(C2CC2)nc2ccccc2c1-c1ccc(F)cc1 (centres undefined) = N
CO[C@H]1OC2O[C@@]3(C)CC[C@H]4[C@H](C)CC[C@@H]([C@H]1C)[C@@]24OO3 (some centres undefined) = Y
CCCC[C@H]1C(=O)N(c2ccccc2)N(c2ccc(O)cc2)C1=O = N
C[C@@H](O)[C@@H]1C(=O)N2C(C(=O)O)=C([C@H]3CCCO3)S[C@H]12 = N
CCC(=O)O[C@]1(C(=O)CCl)[C@@H](C)CC2C3C[C@H](F)C4=CC(=O)C=CC4(C)[C@@]3(F)C(O)CC21C (some centres undefined) = Y
OC[C@@H](O)C(O[C@@H]1O[C@@H](CO)[C@H](O)[C@H](O)[C@H]1O)[C@H](O)[C@@H](O)CO (some centres undefined) = N
C=C[C@H]1CN2CCC1C[C@H]2[C@H](O)c1ccnc2ccc(OC)cc12 (some centres undefined) = Y
CC1CCC(C(C)C)C(O)C1 (centres undefined) = N
O=C(O)[C@H]1C[C@@H](CP(=O)(O)O)CCN1 = N
OCC(CO)NC1C[C@](O)(CO)[C@@H](O)[C@H](O)[C@H]1O (some centres undefined) = N
Cc1cc2nc3c(=O)[nH]c(=O)nc-3n(CC(O)C(O)C(O)COP(=O)(O)O)c2cc1C (centres undefined) = N
